Form field: Inhibition Rifampicine (one value per entry).
Tested on: freshly isolated rat hepatocytes
Test: Uptake into freshly isolated rat hepatocytes
Settings: rat hepatocyte uptake; test item and Rifampicine 1:1, each 100 μM
# number only, unit % inhibition dropped from output

Requested field: Inhibition Rifampicine. Item: CCOCCOCCOc1ccc(CCC[C@@H](C(=O)O)N2CCN(C(CO)C(=O)[O-])CCN(C(CO)C(=O)[O-])CCN(C(CO)C(=O)[O-])CC2)cc1.[Gd+3] (mixture of isomers) 91

// returns reported Inhibition Rifampicine for input COCC(C(=O)O)N1CCN(CC(=O)[O-])CCN(C(Cc2ccc(OCC(F)(F)C(F)F)cc2)C(=O)[O-])CCN(CC(=O)[O-])CC1.[Gd+3] (stereo not shown) 82

// query Inhibition Rifampicine value for entry CCCCOc1ccc(CCCC[C@@H](C(=O)O)N2CCN([C@@H](CO)C(=O)[O-])CCN([C@@H](CO)C(=O)[O-])CCN([C@@H](CO)C(=O)[O-])CC2)cc1.[Gd+3] 46

May I ask what Inhibition Rifampicine has been recorded for CCCOc1ccc(CCC(C(=O)O)N2CCN(CC(=O)[O-])CCN(CC(=O)[O-])CCN(CC(=O)[O-])CC2)cc1.[Gd+3] (stereo not shown) ? 96

So what does the record say about Inhibition Rifampicine for O=C([O-])CN1CCN(CC(=O)[O-])CCN(C(Cc2ccc(OCC(F)(F)C(F)F)cc2)C(=O)O)CCN(CC(=O)[O-])CC1.[Gd+3] (stereo not shown) ? 90

For CCOCCOCCOCCOc1ccc(C[C@@H](C(=O)O)N2CCN(CC(=O)[O-])CCN(CC(=O)[O-])CCN(CC(=O)[O-])CC2)c(OCCOCCOCCOCC)c1.[Gd+3] , what is its reported Inhibition Rifampicine? 88

Reported Inhibition Rifampicine for CCCCOc1ccc(CCC[C@@H](C(=O)O)N2CCN(CC(=O)[O-])CCN(CC(=O)[O-])CCN(CC(=O)[O-])CC2)cc1.[Gd+3] : what is it? 94

----------
Assay: Relaxivity measurements at 1.41 T in human plasma
Assay type: physicochemical
Conditions: 37° C., normalized to Gd
Method: The T1 relaxation times were determined using the standard inversion recovery (IR) method with a fixed relaxation delay of at least 5×T1. The variable inversion time (TI) was calculated automatically by the standard software of the MiniSpec mq60 (8 steps). […] The relaxivities n (where i=1, 2) were calculated based on the measured relaxation rates Ri in water and plasma: […]
result-type: r1 human plasma (L/mmol/s)
# output: bare number, implied unit L/mmol/s

CCOCCOCCOc1ccc(C[C@@H](C(=O)O)N2CCN(CC(=O)[O-])CCN(CC(=O)[O-])CCN(CC(=O)[O-])CC2)cc1.[Gd+3] :: 6.5
CCCOc1ccc(CC(C(=O)O)N2CCN(CC(=O)[O-])CCN(CC(=O)[O-])CCN(CC(=O)[O-])CC2)cc1.[Gd+3] (stereo not drawn) :: 9.3
CCOCCOCCOCCOc1ccc(CC(C(=O)O)N2CCN(CC(=O)[O-])CCN(C(CO)C(=O)[O-])CCN(CC(=O)[O-])CC2)cc1.[Gd+3] (stereo not drawn) :: 7.2
O=C([O-])CN1CCN(CC(=O)[O-])CCN(C(Cc2ccc(OCC(F)(F)C(F)F)cc2)C(=O)O)CCN(CC(=O)[O-])CC1.[Gd+3] (stereo not drawn) :: 10.8
CCOCCOCCOc1ccc(CCCC(C(=O)O)N2CCN(CC(=O)[O-])CCN(CC(=O)[O-])CCN(CC(=O)[O-])CC2)cc1.[Gd+3] (stereo not drawn) :: 7.5

What r1 human plasma value was documented for this molecule, CCOCCOCCOc1ccc(C[C@H](C(=O)O)N2CCN(CC(=O)[O-])CCN(CC(=O)[O-])CCN(CC(=O)[O-])CC2)cc1.[Gd+3] ? 6.5

I am curious: what r1 human plasma value has been reported for CCCCOc1ccc(CC(C(=O)O)N2CCN(CC(=O)[O-])CCN(CC(=O)[O-])CCN(CC(=O)[O-])CC2)cc1.[Gd+3] (stereo not drawn) ? 13.3

Values from patent US20260083864A1
